# methodNotes: Drug recovery in rat plasma at 10 uM after 6 hrs by LC-MS/MS analysis
# Assay type: ADME, cell-free
# cond: read-out: Drug recovery
assayEndpoint: remaining at 6 h, 10 µM (%)
Give the value in % but do not write % after it.

Respond only with remaining at 6 h, 10 µM recorded for "CCOC(=O)c1ccc(-n2c(/C=C3\OC(=O)c4c3cc(C)[nH]c4=O)ccc2CO)cc1"
1.95

* * *

# methodNotes: Stability in mouse liver microsomes assessed as CYP450-mediated drug degradation by measuring proportion of compound metabolised at 1 uM up to 60 mins in presence of NADPH by LC-MS/MS analysis
# Format: ADME
# cond: read-out: Drug degradation
assayEndpoint: metabolised at 1 h, 1 µM (%)
Give the value in % but do not write % after it.

Respond only with metabolised at 1 h, 1 µM recorded for "CCOC(=O)c1ccc(-n2c(/C=C3\OC(=O)c4c3cc(C)[nH]c4=O)ccc2CO)cc1"
99
